Here, each record is paired with measured yeast fitness data.
B1: tRNA (parent)
chain: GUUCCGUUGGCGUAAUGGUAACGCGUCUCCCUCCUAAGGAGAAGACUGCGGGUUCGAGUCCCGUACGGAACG

Variants of: B1
Test: yeast fitness relative to wild type (ratio to wild type); higher = fitter; tRNA-Arg(CCU), competitive growth, 37 C, YPD
Variants at the floor of the assay were thinned out.

MUTATION CODE | yeast fitness
U13G A40G G44C C61G | ≤ 0.5
G41C A43C | 0.731
A14G G25A C30A | 0.563
A42U G44A | 1.01
U26G A37U G51A | ≤ 0.5
C4A A20C A42U C66U | ≤ 0.5
U13A C55A C60G C62G | ≤ 0.5
G18A C22U C30U C33U A45C | ≤ 0.5
C4U U16A C61U | 0.708
A20C C29U C49G | 0.612
U8A C31G A42G G52C | ≤ 0.5
A15G C31U C60U | 0.543
G25A G41A C60G C62G A65G | ≤ 0.5
C5U A20C U32C A40U G50A G52A | ≤ 0.5
G17A C31A | 0.706
U3C U7G A14C C31A | 0.788
U7A G9A U13A A43G G56A | ≤ 0.5
C30U C60A A70C | ≤ 0.5
G6A C24G C31G C34U | ≤ 0.5
U16C U28C | 0.859
U2G G6A G12A C27U A36U C60G | ≤ 0.5
U28A C33G A36U A40G A70G | ≤ 0.5
G18A C31G | 0.666
C49A G56A A57U | ≤ 0.5
U7G G41C G58C | ≤ 0.5
C5U C31A U32C A37C G50C A69C | 0.731
C11U U13A G41A A45U G58U C60A | ≤ 0.5
C22U G23A U54G A57U | ≤ 0.5
G6C C61G G68A | ≤ 0.5
C11A C62G G63A | ≤ 0.5
C11A A21U C66U | ≤ 0.5
G6C A20G A42C A45C | ≤ 0.5
U16C U19G C27G C34U A40U U53A A70U | 0.674
U16A G39A A42G C55A C62A | ≤ 0.5
U2A A40U A70U | 0.696
G12A G41U | 0.819
C11G G12C A20C C24G A37G G68A A69C | ≤ 0.5
C22U U35C C55A C66U | ≤ 0.5
C22U U28G A45G A65G | ≤ 0.5
U35A C55U A65G | ≤ 0.5
G10C A14U U19A C22U C49U C66U | ≤ 0.5
A20U C29U C49G C55A C66U | ≤ 0.5
G25C C29A G48C C60A | ≤ 0.5
A15C U28A C34G A43U G63U U64C | ≤ 0.5
G9A U28C A36G | 0.683
G23C C33U | 0.544
